details: buffer; pH 7.4; 200.0 µM
Listing: solubility kinetic of selected molecules
Could you give me the number in µg/mL? Just the number is fine.

Below are worked cases with known answers.
CO/N=C(\N)c1nonc1N
20.1
CCOC(=O)c1ccc(N=c2ssnc2Cl)cc1
4.8
CC(C)c1ccc(N=Cc2c(O)c3ccccc3oc2=O)cc1
4.3
O=S(=O)(CCNCc1cccs1)c1ccc(Cl)cc1
32.5
CCn1c(=O)c2cc(C(=O)NC(C)C)sc2c2ccccc21
1

Fill blank: measured solubility kinetic of the molecule Cc1cccc(NC(=O)CNC(=O)c2cccc(-n3cccc3)c2)c1C is ____.
8.6

Requested read-out: solubility kinetic. Entry: O=C1OCc2ccc(NC(=O)c3c(F)cccc3Cl)cc21
2

Param item = CC(C)CN1CCN(Cc2cccc3cccnc23)CC1CCO (configuration not stated) ; retrieve measured solubility kinetic.
37.1

Name the reported solubility kinetic value associated with the molecule CCOc1cccc(C(=O)Nc2cc(C)ccc2NC(=O)c2ccco2)c1
22

Requested field: solubility kinetic. Item: CC(C)(C)N(Cc1cc2ccccc2[nH]c1=O)C(=O)c1cccc([N+](=O)[O-])c1
1.4

The measured values listed here are drawn from PubChem BioAssay AID1996.
